- tgt: IKZF1 ZNF2_ZNF3 Q1F degron-tagged CD19 CAR (Homo sapiens, UniProt Q13422, Q146F)
- Construct: ZNF2_ZNF3 Q1F degron (GERPFFCNQCGASFTQKGNLLRHIKLHSGEKPFKCHLCNYACRRRDALTGHLRTHS); fused on or other part: anti-CD19 scFv, CD28 transmembrane domain, 4-1BB costimulatory domain, CD3 zeta signaling domain (the CAR that carries the degron), and Nluc
- Sequence (Q13422 whole entry Q146F, the tested form may be a part): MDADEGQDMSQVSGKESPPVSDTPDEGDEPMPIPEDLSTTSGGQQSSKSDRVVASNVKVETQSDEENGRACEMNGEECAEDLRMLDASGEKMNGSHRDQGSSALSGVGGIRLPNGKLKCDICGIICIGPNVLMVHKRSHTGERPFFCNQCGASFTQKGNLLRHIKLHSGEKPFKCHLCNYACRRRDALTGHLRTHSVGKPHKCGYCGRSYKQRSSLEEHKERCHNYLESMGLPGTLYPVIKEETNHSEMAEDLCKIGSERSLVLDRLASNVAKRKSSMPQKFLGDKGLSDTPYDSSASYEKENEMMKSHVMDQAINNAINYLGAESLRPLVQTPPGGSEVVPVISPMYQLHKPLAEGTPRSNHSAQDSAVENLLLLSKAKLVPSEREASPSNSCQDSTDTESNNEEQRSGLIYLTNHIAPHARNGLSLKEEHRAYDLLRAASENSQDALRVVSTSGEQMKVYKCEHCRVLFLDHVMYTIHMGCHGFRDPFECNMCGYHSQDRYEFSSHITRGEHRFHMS
- method: Degradation of Q1F degron-tagged CD19 CAR in Jurkat cells (flow cytometry of CAR levels)
- Format: cell-based
- run-conditions: Ymax is the % protein degraded; Jurkat cells expressing Q1F degron-tagged CD19 CAR; 18 hours; read-out: Q1F Jurkat-YMax
Binning rule for recorded Dmax: low = under 80%, moderate = from 80% up to 90%, high = 90% and over

>  <compound>
Cn1nccc1CN1CCC(c2c(F)cc3c(c2F)CN(C2CCC(=O)NC2=O)C3=O)CC1 (stereo not shown)

>  <tgt>
IKZF1 ZNF2_ZNF3 Q1F degron-tagged CD19 CAR (Homo sapiens, UniProt Q13422, Q146F)

>  <qualitative-label>
moderate

$$$$
>  <compound>
O=C1CCC(N2Cc3c(cc(F)c(C4CCN(Cc5nc(C(F)(F)F)cs5)CC4)c3F)C2=O)C(=O)N1 (stereo not shown)

>  <tgt>
IKZF1 ZNF2_ZNF3 Q1F degron-tagged CD19 CAR (Homo sapiens, UniProt Q13422, Q146F)

>  <qualitative-label>
low

$$$$
>  <compound>
CC(C)CN1CCC(c2c(F)cc3c(c2F)CN(C2CCC(=O)NC2=O)C3=O)CC1 (stereo not shown)

>  <tgt>
IKZF1 ZNF2_ZNF3 Q1F degron-tagged CD19 CAR (Homo sapiens, UniProt Q13422, Q146F)

>  <qualitative-label>
moderate

$$$$
>  <compound>
O=C1CCC(N2Cc3c(cc(F)c(CNC(=O)c4cc5ccccn5c4)c3F)C2=O)C(=O)N1 (stereo not shown)

>  <tgt>
IKZF1 ZNF2_ZNF3 Q1F degron-tagged CD19 CAR (Homo sapiens, UniProt Q13422, Q146F)

>  <qualitative-label>
low

$$$$
>  <compound>
CN(C)CCCOc1ccc(CN2CCC(c3c(F)cc4c(c3F)CN(C3CCC(=O)NC3=O)C4=O)CC2)cc1 (stereo not shown)

>  <tgt>
IKZF1 ZNF2_ZNF3 Q1F degron-tagged CD19 CAR (Homo sapiens, UniProt Q13422, Q146F)

>  <qualitative-label>
moderate

$$$$
>  <compound>
O=C1CCC(N2Cc3c(cc(F)c(C4(O)CCN(Cc5ccc(C(F)F)cc5)CC4)c3F)C2=O)C(=O)N1 (stereo not shown)

>  <tgt>
IKZF1 ZNF2_ZNF3 Q1F degron-tagged CD19 CAR (Homo sapiens, UniProt Q13422, Q146F)

>  <qualitative-label>
moderate

$$$$
>  <compound>
O=C1CCC(N2Cc3c(cc(F)c(C4CCN(Cc5ccc6ncsc6c5)CC4)c3F)C2=O)C(=O)N1 (stereo not shown)

>  <tgt>
IKZF1 ZNF2_ZNF3 Q1F degron-tagged CD19 CAR (Homo sapiens, UniProt Q13422, Q146F)

>  <qualitative-label>
high

$$$$
>  <compound>
Cc1cc(Br)cnc1CN1CCCC(c2c(F)cc3c(c2F)CN(C2CCC(=O)NC2=O)C3=O)C1 (stereo not shown)

>  <tgt>
IKZF1 ZNF2_ZNF3 Q1F degron-tagged CD19 CAR (Homo sapiens, UniProt Q13422, Q146F)

>  <qualitative-label>
low

$$$$
>  <compound>
CN(CCN1CCC(O)(c2c(F)cc3c(c2F)CN(C2CCC(=O)NC2=O)C3=O)CC1)Cc1ccccc1 (stereo not shown)

>  <tgt>
IKZF1 ZNF2_ZNF3 Q1F degron-tagged CD19 CAR (Homo sapiens, UniProt Q13422, Q146F)

>  <qualitative-label>
low

$$$$
>  <compound>
O=C1CCC(N2Cc3cc(C4(O)CCN(Cc5ccc6ncsc6c5)CC4)c(F)cc3C2=O)C(=O)N1 (stereo not shown)

>  <tgt>
IKZF1 ZNF2_ZNF3 Q1F degron-tagged CD19 CAR (Homo sapiens, UniProt Q13422, Q146F)

>  <qualitative-label>
low

$$$$
>  <compound>
O=C1CCC(N2Cc3cc(C4CCN(Cc5ccc6[nH]ccc6c5)CC4)c(F)cc3C2=O)C(=O)N1 (stereo not shown)

>  <tgt>
IKZF1 ZNF2_ZNF3 Q1F degron-tagged CD19 CAR (Homo sapiens, UniProt Q13422, Q146F)

>  <qualitative-label>
high

$$$$
>  <compound>
O=C1CCC(N2Cc3c(cc(F)c(C4CCN(Cc5ccc(-c6ccccc6)o5)CC4)c3F)C2=O)C(=O)N1 (stereo not shown)

>  <tgt>
IKZF1 ZNF2_ZNF3 Q1F degron-tagged CD19 CAR (Homo sapiens, UniProt Q13422, Q146F)

>  <qualitative-label>
moderate

$$$$
>  <compound>
O=C1CCC(N2Cc3c(cc(F)c(-c4ccc5c(n4)NCCC5)c3F)C2=O)C(=O)N1 (stereo not shown)

>  <tgt>
IKZF1 ZNF2_ZNF3 Q1F degron-tagged CD19 CAR (Homo sapiens, UniProt Q13422, Q146F)

>  <qualitative-label>
low

$$$$

src = patent US20240327381A1
